Reference source for all entries: ChEMBL document CHEMBL1255303

# System: Candida albicans
# test: Antifungal activity against Candida albicans ATCC 24433 after 48 hrs by broth microdilution method
# Assay type: functional
# measurement context: ATCC 24433, 48 h
Documented MFC across a set of molecules
quantity kind: MFC

{"molecule": "N=C(N)c1ccc(OCCCC2CCN(CCCOc3ccc(C(=N)N)cc3)CC2)cc1", "quantity kind": "MFC", "observed measurement": "> 64 µg/mL"}
{"molecule": "OC(Cn1cncn1)(Cn1cncn1)c1ccc(F)cc1F [FLUCONAZOLE]", "quantity kind": "MFC", "observed measurement": "> 64 µg/mL"}
{"molecule": "C[C@@H](c1ncncc1F)[C@](O)(Cn1cncn1)c1ccc(F)cc1F [VORICONAZOLE]", "quantity kind": "MFC", "observed measurement": "> 64 µg/mL"}
